assaySystem: CHO XBP1-luciferase reporter, UPR activation, luminescence
protocolText: activators of UPR IRE1-XBP1 adaptive arm, SAR follow-up, cell-based, luciferase luminescence, set 2 (AID 588580)
The source made the active and inactive calls.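 Rule for the calls: active = mean EC50 of 20 µM or lower; inactive = the rest.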
experimentalEndpoint: EC50

INSERT INTO assay_data (linenotation, experimentalendpoint, observedresult) VALUES
  ('O=C(Nc1cccc(F)c1)c1cc(-c2ccncc2)nc2ccccc12', 'EC50', 'inactive'),
  ('O=C(Nc1ccc(Cl)cc1)c1cc(-c2ccncc2)nc2ccccc12', 'EC50', '8.42 µM'),
  ('O=C(Nc1ccc(F)c(F)c1)c1cc(-c2ccncc2)nc2ccccc12', 'EC50', 'inactive'),
  ('O=C(Nc1cccc(Cl)c1)c1cc(-c2ccncc2)nc2ccccc12', 'EC50', '> 80 µM (inactive)'),
  ('O=C(Nc1cccc(F)c1Br)c1cc(-c2ccncc2)nc2ccccc12', 'EC50', '> 80 µM (inactive)');

### Prompt Query EC50 for Cc1cc(Br)cc(NC(=O)c2cc(-c3ccncc3)nc3ccccc23)c1
### Response > 80 µM (inactive)
